test system: Colon cancer organoid; test: Targeting of F14 CAF-induced therapy resistance in O23 CRC organoid-stroma co-culture. Cell viability is reported without Gefitinib.; assay type: functional, Homo sapiens; conditions: Homo sapiens, Concentration 10 uM; read-out: Cell Viability
RECORDED_METRIC: viability at 10 µM (%)
Numbers only here, please. The scale is %.

CC(=O)C1=C(C)N(c2cccc(C(F)(F)F)c2)C(=O)N[C@@H]1c1ccc(C#N)nc1: 108

Recall the recorded viability at 10 µM for CNc1nc(-c2ccc3c(N)n[nH]c3c2)cc(N2C[C@@H](C(=O)NC3CCCCC3)CC[C@H]2C)n1 with Colon cancer organoid and state it.
44.8

Recall the recorded viability at 10 µM for COc1cc(Nc2ccnc3ccc(Br)cc23)cc(OC)c1OC with Colon cancer organoid and state it.
35

Recall the recorded viability at 10 µM for O=C(/C=C/N1C[C@H]2C[C@@H]1CN2c1ccccn1)c1ccccc1O with Colon cancer organoid and state it.
77.2

Recall the recorded viability at 10 µM for CCn1cc(-c2cccc(C(F)(F)F)c2)c2sc(C(=N)NC3CCS(=O)(=O)CC3)cc2c1=O with Colon cancer organoid and state it.
144
